# Test system: NF-κB pathway, THP1-Dual™ cells
# test-protocol: STING reporter assay in THP1-Dual cells, NF-κB pathway (SEAP, QUANTI-Blue)
# Type: cell-based, human
# condition-notes: Homo sapiens, THP1-Dual, 20 h, THP1-Dual cells, 10% human plasma, 20 hours; SEAP; 100% activation = 100 μM cGAMP; read-out: NFkB (EC50 μM)
Entries and their EC50
Just the number please, in µM, no unit attached.

Some molecules with recorded EC50:
C[C@H](NC(=O)c1cnn2cccnc12)c1cc2cc(Cl)cc(C(=O)O[C@H](C)C(F)(F)F)c2o1 : 5.6
O=C(OCc1cccc(CO)c1)c1cc(Cl)cc2cc(CNC(=O)c3cnn4cccnc34)oc12 : 5.4
CCSC(=O)c1cc(C)cc2cc(CNC(=O)c3cnn4cccnc34)oc12 : 0.29
COC(=O)c1cc(F)cc2cc(CNC(=O)c3cnc4cccnn34)oc12 : 1.3
COC(=O)c1cc(OC)cc2cc(CNC(=O)c3cnn4cccnc34)oc12 : 3
Cc1cc(C(=O)O[C@@H](C)C(F)(F)F)c2oc(CNC(=O)c3cnn4cccnc34)cc2c1 : 2.2

Now for the molecule whose EC50 we want.
// sample COC(=O)c1cc(C)cc2cc(C(C)NC(=O)c3cnn4cccnc34)oc12 (single isomer, unassigned) [Example 97] , its EC50 was 1.5

###

# Tested on: NF-κB pathway, THP1-Dual™ cells
# test-protocol: STING reporter assay in THP1-Dual cells, NF-κB pathway (SEAP, QUANTI-Blue)
# Format: cell-based, human
# condition-notes: Homo sapiens, THP1-Dual, 20 h, THP1-Dual cells, 10% human plasma, 20 hours; SEAP; 100% activation = 100 μM cGAMP; read-out: NFkB (EC50 μM)
Entries and their EC50
Just the number please, in µM, no unit attached.

Some compounds with recorded EC50:
COC(=O)c1cc(Br)cc2cc(CNC(=O)c3cnn4cccnc34)oc12 : 1.1
COCCOCCOC(=O)c1cc(Cl)cc2cc(CNC(=O)c3cnn4cccnc34)oc12 : 3.5
COC(=O)c1cc(C)cc2cc(CNC(=O)c3cncc4[nH]cnc34)oc12 : 1.5

// sample COC(=O)c1cc(Cl)cc2cc(Cn3ccc4ncncc4c3=O)oc12 , its EC50 was 37

// sample CC(=O)OCOC(=O)c1cc(Cl)cc2cc(CNC(=O)c3cnn4cccnc34)oc12 , its EC50 was 2.2

// sample COC(=O)c1cc(C)cc2cc(CNC(=O)c3cnn4cc(C)cnc34)oc12 , its EC50 was 3

// sample O=C(OCC1CC1)c1cccc2cc(CN3CCc4ccncc4C3=O)oc12 , its EC50 was 70

// sample COC(=O)c1cc(F)cc2cc(CN3Cc4ccncc4C3=O)oc12 , its EC50 was 24

// sample O=C(OCC(F)(F)F)c1cccc2cc(CNC(=O)c3cnn4cccnc34)oc12 , its EC50 was 1.6

// sample COC(=O)c1cc(C)cc2c(Cl)c(CNC(=O)c3cnn4cc(C)cnc34)oc12 , its EC50 was 2.6

// sample O=C(OC(CF)CF)c1cc(F)cc2c(Cl)c(CNC(=O)c3cnn4cccnc34)oc12 , its EC50 was 0.35

// sample CC(NC(=O)c1cnn2cccnc12)c1cc2cc(F)cc(C(=O)OC3CC(F)(F)C3)c2o1 (centres unmarked) , its EC50 was 1.3

// sample O=C(OC1CNC1)c1cc(Cl)cc2cc(CNC(=O)c3cnn4cccnc34)oc12 , its EC50 was 98

###

Entries and their log10(EC50)
# Tested on: NF-κB pathway, THP1-Dual™ cells
# test-protocol: STING reporter assay in THP1-Dual cells, NF-κB pathway (SEAP, QUANTI-Blue)
# Format: cell-based, human
# condition-notes: Homo sapiens, THP1-Dual, 20 h, THP1-Dual cells, 10% human plasma, 20 hours; SEAP; 100% activation = 100 μM cGAMP; read-out: NFkB (EC50 μM)
Response schema: value (number) is log10 of EC50 in units of µM.

COC(=O)c1ccc(C)c2cc(CN3CCc4ccncc4C3=O)oc12 [EXAMPLE 28] : 0.56

// sample CSC(=O)c1cc(F)cc2cc(CNC(=O)c3cnc4cccnn34)oc12 [EXAMPLE 383] , its log10(EC50) was 0.04

// sample O=C(OCC(F)F)c1cccc2cc(CN3CCc4ccncc4C3=O)oc12 [EXAMPLE 214] , its log10(EC50) was 0.97

// sample COC(=O)c1cc(C2CC2)cc2cc(CNC(=O)c3cnn4cccnc34)oc12 [Example 99] , its log10(EC50) was 1.08

// sample COC(=O)c1cc(C)cc2cc(Cn3cnc4ccncc4c3=O)oc12 [Example 86] , its log10(EC50) was 0.26

// sample COC(=O)c1cc(O)cc2cc(CN3Cc4ccncc4C3=O)oc12 [EXAMPLE 104] , its log10(EC50) was 1.57

// sample O=C(OCC(F)(F)F)c1ccc(F)c2cc(CNC(=O)c3cnn4cccnc34)oc12 [EXAMPLE 355] , its log10(EC50) was 0.11

// sample CC(C)OC(=O)c1cc(F)cc2cc(CNC(=O)c3cnn4cccnc34)oc12 [EXAMPLE 232] , its log10(EC50) was -0.04

// sample Cc1cc(C(=O)O)c2oc(CNC(=O)c3cncc4cccnc34)cc2c1 [EXAMPLE 192] , its log10(EC50) was 1.97

###

# System: NF-κB pathway, THP1-Dual™ cells
# test-protocol: STING reporter assay in THP1-Dual cells, NF-κB pathway (SEAP, QUANTI-Blue)
# Format: cell-based, human
# condition-notes: Homo sapiens, THP1-Dual, 20 h, THP1-Dual cells, 10% human plasma, 20 hours; SEAP; 100% activation = 100 μM cGAMP; read-out: NFkB (EC50 μM)
endpoint: log10 of EC50 (log10 of the value in µM)
Response schema: value (number) is log10 of EC50 in units of µM.

Cc1cc(C(=O)OCC(F)(F)F)c2oc(CNC(=O)c3cnn4cccnc34)cc2c1 : -0.52

// sample Cc1cc(C(=O)OC2CC(F)(F)C2)c2oc(CNC(=O)c3cnn4cccnc34)cc2c1 , its log10 of EC50 was -0.14

// sample COC(OC(=O)c1cc(C)cc2cc(CNC(=O)c3cnn4cccnc34)oc12)C(F)(F)F (single isomer, unassigned) , its log10 of EC50 was -0.12

// sample Cc1ccc(C(=O)OCC(F)(F)F)c2oc(CNC(=O)c3cnn4cccnc34)cc12 , its log10 of EC50 was 0.30

// sample COC(=O)c1c(C)ccc2cc(CNC(=O)c3cnn4cccnc34)oc12 , its log10 of EC50 was 1.49

// sample COC(=O)c1cc(F)cc2c(Cl)c([C@H](C)NC(=O)c3cnn4cccnc34)oc12 , its log10 of EC50 was 0.15

// sample COC(=O)c1cc(Cl)cc2cc(CNC(=O)c3c(N)nn4cccnc34)oc12 , its log10 of EC50 was 1.20

// sample CSC(=O)c1cc(F)cc2cc(Cn3cnc4ccncc4c3=O)oc12 , its log10 of EC50 was 0.40

###

# Test system: NF-κB pathway, THP1-Dual™ cells
# test-protocol: STING reporter assay in THP1-Dual cells, NF-κB pathway (SEAP, QUANTI-Blue)
# Assay type: cell-based, human
# condition-notes: Homo sapiens, THP1-Dual, 20 h, THP1-Dual cells, 10% human plasma, 20 hours; SEAP; 100% activation = 100 μM cGAMP; read-out: NFkB (EC50 μM)
endpoint: EC50 (µM)
Just the number please, in µM, no unit attached.

Some molecules with recorded EC50:
O=C(OCC(F)(F)F)c1cc(Br)cc2cc(CNC(=O)c3cnn4cccnc34)oc12 : 1.1
CSC(=O)c1cc(Cl)cc2c(Cl)c([C@H](C)NC(=O)c3cnn4cccnc34)oc12 : 2.4
CCOC(=O)c1c(C)ccc2cc(CNC(=O)c3cnn4cccnc34)oc12 : 19
CSC(=O)c1cc(C)cc2c(Cl)c(CNC(=O)c3cnn4cccnc34)oc12 : 0.47
COC(=O)Cc1cc(C)cc2cc(CNC(=O)c3cnn4cccnc34)oc12 : 10
Cc1cc(C(=O)O)c2oc(CNC(=O)c3cnn4cccnc34)cc2c1 : 52
CCCn1cncc(C(=O)NCc2cc3cc(Cl)cc(C(=O)OC)c3o2)c1=O : 32
Cc1ccc2cc(CNC(=O)c3cnn4cccnc34)oc2c1C(=O)OCC(F)(F)F : 18
COC(=O)c1cc(C)cc2cc(CN3CCc4ccncc4C3=O)oc12 : 5.8
CCOc1ncncc1C(=O)NCc1cc2cc(Cl)cc(C(=O)OC)c2o1 : 3.5

// sample CC(C)OC(=O)c1cc(Cl)cc2cc(CNC(=O)c3cnn4cccnc34)oc12 , its EC50 was 0.61

// sample Cc1cc(C(=O)OC(CF)CF)c2oc(CNC(=O)c3cnn4cccnc34)cc2c1 , its EC50 was 0.83

// sample O=C(OCC(F)(F)F)c1cc(F)cc2cc(CNC(=O)c3cnc4cccnn34)oc12 , its EC50 was 0.95

// sample O=C(OCC(F)(F)F)c1cc(Cl)cc2cc(Cn3ccc4ccncc4c3=O)oc12 , its EC50 was 4.6

// sample O=C(OCC(F)(F)F)c1cc(F)cc2cc(CN3CCc4ccncc4C3=O)oc12 , its EC50 was 6.5

// sample O=C(OC1CC1)c1cccc2cc(CN3CCc4ccncc4C3=O)oc12 , its EC50 was 17
